pEC50 overview
Study Target: human M1 (Homo sapiens)
Construct: expressed in transfected cells; host or cells: CHO cells
Sequence (P11229 1-460): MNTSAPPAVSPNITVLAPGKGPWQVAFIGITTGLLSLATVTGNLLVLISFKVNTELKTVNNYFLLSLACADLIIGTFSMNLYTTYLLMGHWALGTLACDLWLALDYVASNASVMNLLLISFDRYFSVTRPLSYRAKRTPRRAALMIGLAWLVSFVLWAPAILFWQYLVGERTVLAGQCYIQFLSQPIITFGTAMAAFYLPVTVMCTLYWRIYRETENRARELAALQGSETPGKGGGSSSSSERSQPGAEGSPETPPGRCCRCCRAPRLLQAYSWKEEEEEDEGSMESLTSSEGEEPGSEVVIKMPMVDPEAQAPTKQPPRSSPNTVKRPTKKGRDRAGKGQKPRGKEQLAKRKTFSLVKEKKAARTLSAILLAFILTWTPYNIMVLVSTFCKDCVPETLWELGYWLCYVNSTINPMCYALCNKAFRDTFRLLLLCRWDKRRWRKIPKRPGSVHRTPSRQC
Procedure Details: M1 PAM assay (FLIPR intracellular calcium), human M1
Type: cell-based
Cond: CHO human M1 cells, FLIPR Ca2+, with EC20 of acetylcholine; first value of the cell; read-out: hM1 EC50
pEC50 is defined as minus the log10 of a concentration measured in mol/L.

// worked examples, pEC50 included
* COc1ccc(F)c2c(C(=O)N[C@H]3CCOC[C@@H]3O)cn(Cc3ccc(-c4cnn(C)c4)cc3)c12 | 7.30
* CNC(=O)c1ccc(Cn2cc(C(=O)N[C@H]3CCCC[C@@H]3O)c3c(F)cccc32)cc1 | 8.36
* CNC(=O)c1ccc(Cn2cc(C(=O)NC3CCOCC3)c3c(F)cccc32)cc1F | 7.23
* Cn1cc(-c2ccc(Cn3cc(C(=O)NCC4COC4)c4c(F)cccc43)cc2)cn1 | 6.72
* Cn1cc(-c2ccc(Cn3cc(CC(=O)N[C@H]4CCCC[C@@H]4O)c4c(F)cccc43)c(F)c2)cn1 | 6.72
* Cn1cc(-c2ccc(Cn3cc(C(=O)N[C@@H]4C[C@@H]5CC[C@H]4O5)c4c(F)cccc43)c(F)c2)cn1 (relative stereo) | 6.78

Please report the recorded pEC50 for Cn1cc(-c2ccc(Cn3nc(C(=O)NC4CCOCC4)c4c(F)cccc43)cc2)cn1 .
6.46

Please report the recorded pEC50 for O=C(NC1CC1)c1ccc(Cn2cc(C(=O)N[C@H]3CCCC[C@@H]3O)c3c(F)cccc32)cc1 .
8.70

Please report the recorded pEC50 for Cn1cc(-c2ccc(Cn3cc(C(=O)N[C@H]4CCOC[C@@H]4O)c4c(F)cccc43)c(F)c2)cn1 (single isomer, unassigned) [Example 71] .
8.23

###

EC50 overview
Study Target: ratM1 (Rattus norvegicus, UniProt P08482)
Construct: expressed in transfected cells; host or cells: CHO cells (stated generally for the assay, not specifically for rat M1)
Sequence (P08482 whole entry): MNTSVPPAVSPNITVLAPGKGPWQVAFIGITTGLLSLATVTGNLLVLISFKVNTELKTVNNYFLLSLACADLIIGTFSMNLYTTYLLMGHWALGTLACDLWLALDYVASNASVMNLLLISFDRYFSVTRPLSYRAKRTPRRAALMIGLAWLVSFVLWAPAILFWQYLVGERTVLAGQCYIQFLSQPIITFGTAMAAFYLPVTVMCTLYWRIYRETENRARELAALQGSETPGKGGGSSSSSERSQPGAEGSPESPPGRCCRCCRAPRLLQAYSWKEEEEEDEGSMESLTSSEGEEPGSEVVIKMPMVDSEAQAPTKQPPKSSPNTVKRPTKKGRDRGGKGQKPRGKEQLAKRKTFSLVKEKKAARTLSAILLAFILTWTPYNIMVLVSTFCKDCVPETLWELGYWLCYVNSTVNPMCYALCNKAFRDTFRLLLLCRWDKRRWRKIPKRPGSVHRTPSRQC
Procedure Details: M1 PAM assay (FLIPR intracellular calcium), rat M1
Assay type: cell-based
Cond: rat M1, FLIPR Ca2+; second value of the cell; read-out: ratM1 EC50
# do not omit the unit; it follows the number

* Cn1cc(-c2ccc(Cn3cc(C(=O)N[C@H]4CCCC[C@@H]4O)c4c(F)c(F)ccc43)cn2)cn1 | 10000 nM
* CNC(=O)c1ccc(Cn2cc(C(=O)NC3CCCCC3F)c3c(F)cccc32)cc1F (stereo not drawn) | 66 nM
* Cn1cc(-c2ccc(Cn3cc(C(=O)N[C@H]4CCOC[C@@H]4O)c4c(F)ccc(C5CC5)c43)c(F)c2)cn1 | 767 nM

Please report the recorded EC50 for COc1ccc(F)c2c(C(=O)NC3CCOCC3)cn(Cc3ccc(-c4cnn(C)c4)cc3)c12 .
299 nM

Please report the recorded EC50 for COc1ccc(F)c2c(C(=O)N[C@H]3CCCC[C@@H]3O)cn(Cc3ccc(-c4cnn(C)c4)cc3)c12 .
139 nM

Please report the recorded EC50 for O=C(NC1CC1)c1ccc(Cn2cc(C(=O)N[C@H]3CCCC[C@@H]3O)c3c(F)cccc32)cc1 .
5 nM

Please report the recorded EC50 for O=C(N[C@H]1CCCC[C@@H]1O)c1cn(Cc2ccc(N3CCCC3)cc2)c2cccc(F)c12 .
307 nM

Please report the recorded EC50 for O=C(N[C@H]1CCCC[C@@H]1O)c1cn(Cc2ccc(-c3ccccc3)cn2)c2cccc(F)c12 .
518 nM

Please report the recorded EC50 for Cn1cc(-c2ccc(Cn3cc(C(=O)NC4CCOCC4)c4c(F)ccc(F)c43)cc2)cn1 .
50 nM

Please report the recorded EC50 for Cn1cc(-c2ccc(Cn3cc(C(=O)NC4CCC4)c4c(F)cccc43)cc2)cn1 .
618 nM

Please report the recorded EC50 for CCc1ccc(F)c2c(C(=O)N[C@H]3CCOC[C@@H]3O)cn(Cc3ccc(-c4cnn(C)c4)cc3)c12 .
79 nM

Please report the recorded EC50 for COc1ccc(F)c2c(C(=O)N[C@H]3CCCC[C@@H]3O)cn(Cc3ccc(-c4cnn(C)c4)cc3F)c12 .
348 nM

Please report the recorded EC50 for CNC(=O)c1ccc(Cn2cc(C(=O)NC3CCCC(F)(F)C3)c3c(F)cccc32)cc1 (stereo not drawn) .
29 nM

###

Study Target: human M1 (Homo sapiens)
Construct: expressed in transfected cells; host or cells: CHO cells
Sequence (P11229 1-460): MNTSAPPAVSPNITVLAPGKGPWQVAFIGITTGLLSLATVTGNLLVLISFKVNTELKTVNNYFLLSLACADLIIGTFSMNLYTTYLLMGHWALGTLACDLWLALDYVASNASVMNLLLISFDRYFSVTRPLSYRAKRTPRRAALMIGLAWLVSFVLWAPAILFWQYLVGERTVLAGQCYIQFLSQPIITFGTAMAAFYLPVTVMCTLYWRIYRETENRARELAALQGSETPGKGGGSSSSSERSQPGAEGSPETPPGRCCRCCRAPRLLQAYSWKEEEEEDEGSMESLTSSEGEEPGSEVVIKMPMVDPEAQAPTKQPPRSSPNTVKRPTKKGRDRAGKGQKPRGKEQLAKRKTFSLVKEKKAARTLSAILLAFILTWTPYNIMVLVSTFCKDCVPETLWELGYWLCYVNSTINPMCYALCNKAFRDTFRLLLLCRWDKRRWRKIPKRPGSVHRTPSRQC
Procedure Details: M1 PAM assay (FLIPR intracellular calcium), human M1
Assay type: cell-based
Cond: CHO human M1 cells, FLIPR Ca2+, with EC20 of acetylcholine; first value of the cell; read-out: hM1 EC50
Measurement Name: pEC50
pEC50 is defined as minus the log10 of a concentration measured in mol/L.

// worked examples, pEC50 included
* CCc1ccc(F)c2c(C(=O)N[C@H]3CCOC[C@@H]3O)cn(Cc3ccc(-c4cnn(C)c4)cc3)c12 [Example 109] | 7.21
* Cc1cn(-c2ccc(Cn3cc(C(=O)N[C@H]4CCOC[C@@H]4O)c4c(F)cccc43)cc2)cn1 (single isomer, unassigned) [Example 51] | 7.91
* COc1ccc(F)c2c(C(=O)NC3CCOCC3)cn(Cc3ccc(-c4cnn(C)c4)cc3F)c12 [Example 152] | 6.59

Kindly consider the entry below.
Please report the recorded pEC50 for Cn1cc(-c2ccc(Cn3cc(C(=O)N[C@H]4CCOC[C@@H]4O)c4c(F)c(F)c(F)c(F)c43)cc2)cn1 (single isomer, unassigned) [Example 63] .
7.71

###

Study Target: ratM1 (Rattus norvegicus)
Construct: expressed in transfected cells; host or cells: CHO cells (stated generally for the assay, not specifically for rat M1)
Procedure Details: M1 PAM assay (FLIPR intracellular calcium), rat M1
Assay type: cell-based
Cond: rat M1, FLIPR Ca2+; second value of the cell; read-out: ratM1 EC50
Measurement Name: pEC50
pEC50 is defined as minus the log10 of a concentration measured in mol/L.

• Cn1cc(-c2ccc(Cn3cc(C(=O)NCC4(O)CC4)c4c(F)cccc43)c(F)c2)cn1 = 5.72
• Cn1cc(-c2ccc(Cn3cc(C(=O)N[C@H]4CCCC(F)(F)[C@@H]4O)c4c(F)cccc43)c(F)c2)cn1 = 7.49

What is its pEC50 for ratM1 (Rattus norvegicus)? Entry: CNC(=O)c1ccc(Cn2cc(C(=O)NC3CCCC3)c3c(F)cccc32)cc1
7.11

What is its pEC50 for ratM1 (Rattus norvegicus)? Entry: O=C(N[C@H]1CCCC[C@@H]1O)c1cn(Cc2ccc(-c3cncnc3)cc2)c2cccc(F)c12
7.21

What is its pEC50 for ratM1 (Rattus norvegicus)? Entry: Cn1cc(-c2ccc(Cn3cc(C(=O)NC4CCOCC4)c4c(F)cccc43)c(F)c2)cn1
6.76

What is its pEC50 for ratM1 (Rattus norvegicus)? Entry: Cn1cc(-c2ccc(Cn3nc(C(=O)N[C@H]4CCCC[C@@H]4O)c4c(F)ccc(F)c43)cn2)cn1
7.34

What is its pEC50 for ratM1 (Rattus norvegicus)? Entry: O=C(N[C@H]1CCCC[C@@H]1O)c1cn(Cc2ccc(-c3cccnc3)cc2)c2cccc(F)c12
7.33
